Target: T1, human IL-33 (R&D Systems, #3625-IL-010/CF) (human) (UniProt O95760)
T1 sequence (looked up): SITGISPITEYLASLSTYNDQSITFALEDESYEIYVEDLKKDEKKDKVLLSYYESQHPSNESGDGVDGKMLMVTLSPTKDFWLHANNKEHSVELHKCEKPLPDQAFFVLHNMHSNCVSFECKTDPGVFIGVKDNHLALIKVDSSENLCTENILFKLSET
Listed binders paired with reported Ph-p38 MFI at 0.4 nM Ab (500 pM human IL-33, primary basophils)
readout type: Ph-p38 MFI at 0.4 nM Ab (500 pM human IL-33, primary basophils) (MFI)

- H4H9662P (antibody, from another filing, IgG4, V domains shown) VH: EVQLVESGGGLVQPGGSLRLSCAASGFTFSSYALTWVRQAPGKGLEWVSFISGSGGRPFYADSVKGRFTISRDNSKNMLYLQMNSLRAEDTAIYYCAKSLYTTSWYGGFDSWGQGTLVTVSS VL: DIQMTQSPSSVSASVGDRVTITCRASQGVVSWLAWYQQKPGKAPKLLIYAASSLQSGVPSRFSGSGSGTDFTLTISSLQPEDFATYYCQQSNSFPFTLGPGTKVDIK: 86
- H4H9667P (antibody, from another filing, IgG4, V domains shown) VH: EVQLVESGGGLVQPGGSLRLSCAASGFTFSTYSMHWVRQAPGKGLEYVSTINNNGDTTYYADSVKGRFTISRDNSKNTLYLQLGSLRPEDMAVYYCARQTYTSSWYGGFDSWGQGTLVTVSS VL: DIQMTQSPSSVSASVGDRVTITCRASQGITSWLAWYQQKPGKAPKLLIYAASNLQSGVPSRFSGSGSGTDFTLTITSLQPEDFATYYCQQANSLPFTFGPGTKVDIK: 111
- H4H9666P (antibody, from another filing, IgG4, V domains shown) VH: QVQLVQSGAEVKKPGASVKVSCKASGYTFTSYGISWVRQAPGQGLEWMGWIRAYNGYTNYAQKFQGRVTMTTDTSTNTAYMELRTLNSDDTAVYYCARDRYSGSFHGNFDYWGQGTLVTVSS VL: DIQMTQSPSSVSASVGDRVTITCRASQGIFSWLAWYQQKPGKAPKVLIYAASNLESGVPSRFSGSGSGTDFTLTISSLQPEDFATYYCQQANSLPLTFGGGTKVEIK: 90
